System: PC-9
Experiment: Potentialization of cytostatic activity of chemotherapeutics by HuIFN-gamma in vitro
Format: cell-based, human
Conditions: single agent, two days: HuIFN-gamma 50 units, ACNU 1.0×10^-6, 5-FU 1.5×10^-8, ADM 1.0×10^-10, MMC 2.5×10^-9, VCR 1.5×10^-10 g/ml, 2880 min
Counter-ions that a name gives are not always drawn.
Record Y whenever Cytostatic rate (%) is at 5% or higher; record N when lower.

Consider the following illustrative entries.
| Molecule | Cat |
| --- | --- |
| COc1cccc2c1C(=O)c1c(O)c3c(c(O)c1C2=O)C[C@@](O)(C(=O)CO)C[C@@H]3O[C@H]1C[C@H](N)[C@H](O)[C@H](C)O1 [ADM, doxorubicin] | Y |
| CC[C@]1(O)C[C@H]2CN(CCc3c([nH]c4ccccc34)[C@@](C(=O)OC)(c3cc4c(cc3OC)N(C=O)[C@H]3[C@@](O)(C(=O)OC)[C@H](OC(C)=O)[C@]5(CC)C=CCN6CC[C@]43[C@@H]65)C2)C1 [VCR, vincristine sulfate] | Y |
| Cc1ncc(CNC(=O)N(CCCl)N=O)c(N)n1 [ACNU, nimustine hydrochloride] | N |

Turning now to a further record.
# input Determine whether this molecule has Cytostatic rate (%) no lower than 5%: O=c1[nH]cc(F)c(=O)[nH]1 [Example 5-FU, fluorouracil]
# output Y

---

Consider the following compounds and their measured Cytostatic rate (%) readings.
System: HEp-2 cell
Assay: Potentialization of cytostatic activity of chemotherapeutics by HuIFN-gamma in vitro
Type: cell-based, human
Conditions: chemotherapeutic with addition (+) of 50 units HuIFN-gamma, two days, same chemotherapeutic concentrations, 2880 min
Where a name gives a salt, the structure may show the parent alone.
Reply numerically in %, unit not repeated.

| Compound | Unit abbrev | Reading |
| --- | --- | --- |
| CC[C@]1(O)C[C@H]2CN(CCc3c([nH]c4ccccc34)[C@@](C(=O)OC)(c3cc4c(cc3OC)N(C=O)[C@H]3[C@@](O)(C(=O)OC)[C@H](OC(C)=O)[C@]5(CC)C=CCN6CC[C@]43[C@@H]65)C2)C1 [VCR, vincristine sulfate] | % | 58 |
| COc1cccc2c1C(=O)c1c(O)c3c(c(O)c1C2=O)C[C@@](O)(C(=O)CO)C[C@@H]3O[C@H]1C[C@H](N)[C@H](O)[C@H](C)O1 | % | 59 |
| O=c1[nH]cc(F)c(=O)[nH]1 | % | 67 |
| CO[C@@]12[C@H](COC(N)=O)C3=C(C(=O)C(C)=C(N)C3=O)N1C[C@@H]1N[C@@H]12 | % | 61 |

// moving on: another record for Cytostatic rate (%)
# input Report Cytostatic rate (%) for Cc1ncc(CNC(=O)N(CCCl)N=O)c(N)n1 [ACNU, nimustine hydrochloride] tested on HEp-2 cell.
# output 54

---

System: HLE
Test: Potentialization of cytostatic activity of chemotherapeutics by HuIFN-gamma in vitro
Assay type: cell-based, human
Settings: single agent, two days: HuIFN-gamma 50 units, ACNU 1.0×10^-6, 5-FU 1.5×10^-8, ADM 1.0×10^-10, MMC 2.5×10^-9, VCR 1.5×10^-10 g/ml, 2880 min
Structures can show the parent of a compound that is named as a salt.
Record condition met whenever Cytostatic rate (%) is at 10% or higher; record condition not met when lower.

Consider the following illustrative entries.
| Molecule | Cat |
| --- | --- |
| O=c1[nH]cc(F)c(=O)[nH]1 [Example 5-FU, fluorouracil] | condition not met |
| Cc1ncc(CNC(=O)N(CCCl)N=O)c(N)n1 [ACNU, nimustine hydrochloride] | condition not met |
| CO[C@@]12[C@H](COC(N)=O)C3=C(C(=O)C(C)=C(N)C3=O)N1C[C@@H]1N[C@@H]12 [MMC, mitomycin C] | condition met |

Turning now to a further record.
# input Determine whether this molecule has Cytostatic rate (%) no lower than 10%: COc1cccc2c1C(=O)c1c(O)c3c(c(O)c1C2=O)C[C@@](O)(C(=O)CO)C[C@@H]3O[C@H]1C[C@H](N)[C@H](O)[C@H](C)O1 [ADM, doxorubicin]
# output condition not met

---

Tested on: HeLa
Assay: Potentialization of cytostatic activity of chemotherapeutics by HuIFN-gamma in vitro
Assay type: cell-based, human
Conditions: chemotherapeutic with addition (+) of 50 units HuIFN-gamma, two days, same chemotherapeutic concentrations, 2880 min
Where a name gives a salt, the structure may show the parent alone.
Consider the following compounds and their measured Cytostatic rate (%) readings.
Reply numerically in %, unit not repeated.

Example results:
| Compound | Cytostatic rate (%) |
| --- | --- |
| COc1cccc2c1C(=O)c1c(O)c3c(c(O)c1C2=O)C[C@@](O)(C(=O)CO)C[C@@H]3O[C@H]1C[C@H](N)[C@H](O)[C@H](C)O1 | 64 |
| CC[C@]1(O)C[C@H]2CN(CCc3c([nH]c4ccccc34)[C@@](C(=O)OC)(c3cc4c(cc3OC)N(C=O)[C@H]3[C@@](O)(C(=O)OC)[C@H](OC(C)=O)[C@]5(CC)C=CCN6CC[C@]43[C@@H]65)C2)C1 [VCR, vincristine sulfate] | 65 |

# input Looking for the measured Cytostatic rate (%) of "O=c1[nH]cc(F)c(=O)[nH]1" , can you help?
# output 70

# input Looking for the measured Cytostatic rate (%) of Cc1ncc(CNC(=O)N(CCCl)N=O)c(N)n1 [ACNU, nimustine hydrochloride] , can you help?
# output 72

# input Looking for the measured Cytostatic rate (%) of "CO[C@@]12[C@H](COC(N)=O)C3=C(C(=O)C(C)=C(N)C3=O)N1C[C@@H]1N[C@@H]12" , can you help?
# output 62
